pIC50: −log10 of the molar value.
Below are compounds with their pIC50 as measured on human T-type channel alpha-1H (CaV 3.2) (Homo sapiens, UniProt O95180).
Sequence (O95180 whole entry): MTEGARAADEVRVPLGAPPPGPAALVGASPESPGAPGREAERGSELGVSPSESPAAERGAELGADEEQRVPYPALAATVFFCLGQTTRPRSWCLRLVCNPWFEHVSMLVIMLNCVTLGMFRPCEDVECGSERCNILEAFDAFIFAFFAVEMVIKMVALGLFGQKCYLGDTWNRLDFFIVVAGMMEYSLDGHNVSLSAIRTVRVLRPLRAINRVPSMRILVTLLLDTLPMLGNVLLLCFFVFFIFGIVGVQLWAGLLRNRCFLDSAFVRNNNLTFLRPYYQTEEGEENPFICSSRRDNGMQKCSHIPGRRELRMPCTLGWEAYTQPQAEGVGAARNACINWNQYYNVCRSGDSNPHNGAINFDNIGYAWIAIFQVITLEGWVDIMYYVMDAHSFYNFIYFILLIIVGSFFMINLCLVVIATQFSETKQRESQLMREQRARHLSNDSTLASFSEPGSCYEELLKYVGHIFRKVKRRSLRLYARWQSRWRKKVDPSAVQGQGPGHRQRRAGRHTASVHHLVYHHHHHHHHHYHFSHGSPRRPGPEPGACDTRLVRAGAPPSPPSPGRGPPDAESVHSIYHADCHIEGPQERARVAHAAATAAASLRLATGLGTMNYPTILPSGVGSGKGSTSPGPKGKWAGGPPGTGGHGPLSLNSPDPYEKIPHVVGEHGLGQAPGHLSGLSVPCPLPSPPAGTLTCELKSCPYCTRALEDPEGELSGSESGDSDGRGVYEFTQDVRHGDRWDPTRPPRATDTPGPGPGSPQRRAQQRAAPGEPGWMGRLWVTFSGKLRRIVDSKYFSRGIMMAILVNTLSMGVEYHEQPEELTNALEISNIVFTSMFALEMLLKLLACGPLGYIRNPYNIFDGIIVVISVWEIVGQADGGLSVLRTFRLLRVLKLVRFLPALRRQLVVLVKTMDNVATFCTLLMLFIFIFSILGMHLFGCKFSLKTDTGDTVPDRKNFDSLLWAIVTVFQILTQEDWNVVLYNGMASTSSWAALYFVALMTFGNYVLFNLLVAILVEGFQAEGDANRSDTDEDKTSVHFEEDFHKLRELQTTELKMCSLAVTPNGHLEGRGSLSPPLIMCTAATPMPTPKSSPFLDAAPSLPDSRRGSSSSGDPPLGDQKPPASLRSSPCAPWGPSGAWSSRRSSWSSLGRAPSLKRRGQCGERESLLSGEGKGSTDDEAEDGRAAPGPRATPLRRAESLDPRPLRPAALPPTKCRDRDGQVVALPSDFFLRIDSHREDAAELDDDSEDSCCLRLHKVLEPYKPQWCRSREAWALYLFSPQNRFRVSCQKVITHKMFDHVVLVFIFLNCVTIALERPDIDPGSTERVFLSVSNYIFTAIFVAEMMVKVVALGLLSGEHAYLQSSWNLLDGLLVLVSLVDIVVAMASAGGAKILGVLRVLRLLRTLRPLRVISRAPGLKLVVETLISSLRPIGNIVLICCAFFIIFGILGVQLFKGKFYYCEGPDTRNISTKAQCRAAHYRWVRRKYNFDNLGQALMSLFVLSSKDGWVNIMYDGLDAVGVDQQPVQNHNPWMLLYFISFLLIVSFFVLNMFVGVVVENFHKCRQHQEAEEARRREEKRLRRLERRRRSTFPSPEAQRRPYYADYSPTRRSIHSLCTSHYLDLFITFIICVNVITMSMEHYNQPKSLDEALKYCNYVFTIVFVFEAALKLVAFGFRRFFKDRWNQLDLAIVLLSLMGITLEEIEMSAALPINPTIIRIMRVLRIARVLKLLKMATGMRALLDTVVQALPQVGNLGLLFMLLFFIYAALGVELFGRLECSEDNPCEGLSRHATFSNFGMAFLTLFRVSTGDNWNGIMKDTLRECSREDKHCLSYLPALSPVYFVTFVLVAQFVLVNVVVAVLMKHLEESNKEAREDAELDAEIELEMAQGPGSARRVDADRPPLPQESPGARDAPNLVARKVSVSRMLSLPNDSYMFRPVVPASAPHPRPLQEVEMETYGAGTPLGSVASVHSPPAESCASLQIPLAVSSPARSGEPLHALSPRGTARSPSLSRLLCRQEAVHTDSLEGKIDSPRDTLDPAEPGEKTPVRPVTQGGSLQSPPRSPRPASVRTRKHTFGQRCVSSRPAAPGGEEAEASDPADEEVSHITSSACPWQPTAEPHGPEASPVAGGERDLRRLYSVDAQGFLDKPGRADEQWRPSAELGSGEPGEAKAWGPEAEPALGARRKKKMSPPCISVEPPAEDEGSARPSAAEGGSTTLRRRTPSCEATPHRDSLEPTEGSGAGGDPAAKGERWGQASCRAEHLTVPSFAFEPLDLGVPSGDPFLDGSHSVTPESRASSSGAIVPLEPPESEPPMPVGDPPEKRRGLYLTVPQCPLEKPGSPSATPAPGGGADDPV

Entry C[C@@H](NC(=O)[C@@H]1C[C@H]1c1nc2cc(F)ccc2[nH]1)c1ccc(OCC(F)(F)F)nc1 (relative stereo) , system human T-type channel alpha-1H (CaV 3.2) (Homo sapiens, UniProt O95180): what pIC50 was measured?
≥ 6.52

Entry C[C@@H](NC(=O)[C@H]1C[C@@H]1c1cccc2cc[nH]c12)c1ccc(OCC2CC2)cn1 (relative stereo) , system human T-type channel alpha-1H (CaV 3.2) (Homo sapiens, UniProt O95180): what pIC50 was measured?
≥ 6.52

Entry C[C@@H](NC(=O)C1CC1c1c[nH]c2ccc(F)cc12)c1ccc(OCC(F)(F)F)cn1 (stereo in doubt) , system human T-type channel alpha-1H (CaV 3.2) (Homo sapiens, UniProt O95180): what pIC50 was measured?
≥ 6.52

Entry C[C@@H](NC(=O)C1CC1c1ccc2ccn(CC3(C)COC3)c2c1)c1cnc(OCC(F)(F)F)cn1 (stereo in doubt) , system human T-type channel alpha-1H (CaV 3.2) (Homo sapiens, UniProt O95180): what pIC50 was measured?
≥ 6.52

Entry C[C@@H](NC(=O)C1CC1c1nc2ccccc2n1C)c1ccc(OCC(F)(F)F)cn1 (stereo in doubt) , system human T-type channel alpha-1H (CaV 3.2) (Homo sapiens, UniProt O95180): what pIC50 was measured?
≥ 6.52

Entry C[C@@H](NC(=O)C1CC1c1cc2cc(F)ccc2[nH]1)c1cnc(OCC(F)(F)F)cn1 (stereo in doubt) , system human T-type channel alpha-1H (CaV 3.2) (Homo sapiens, UniProt O95180): what pIC50 was measured?
≥ 6.52
